System: Escherichia coli TOP10
RUN_DESCRIPTION: shrunken log2 fold change of peptide-encoding DNA abundance (4.5 h post-induction vs induction); higher = less antimicrobial activity (less host growth inhibition)
EXPERIMENTAL_CONDITIONS: time post-induction: 4.5 h; library: site-saturation at positions 5, 18, 19, 20
QUANTITY_MEASURED: shrunken log2 fold change
Please reply with the number alone, leaving off any unit.

Examples with answers:
ENTRY_SEQUENCE: RRIRYRPPRLPRPRPRPVYHPRP
EXPERIMENTAL_SYSTEM: Escherichia coli TOP10
shrunken log2 fold change: -0.586

ENTRY_SEQUENCE: RRIRDRPPRLPRPRPRPSTRPRP
EXPERIMENTAL_SYSTEM: Escherichia coli TOP10
shrunken log2 fold change: 0.152

ENTRY_SEQUENCE: RRIRPRPPRLPRPRPRPIHQPRP
EXPERIMENTAL_SYSTEM: Escherichia coli TOP10
shrunken log2 fold change: -0.115

ENTRY_SEQUENCE: RRIRIRPPRLPRPRPRPPGRPRP
EXPERIMENTAL_SYSTEM: Escherichia coli TOP10
shrunken log2 fold change: 0.336

ENTRY_SEQUENCE: RRIRVRPPRLPRPRPRPCMFPRP
EXPERIMENTAL_SYSTEM: Escherichia coli TOP10
shrunken log2 fold change: -0.559

ENTRY_SEQUENCE: RRIRARPPRLPRPRPRPPFCPRP
EXPERIMENTAL_SYSTEM: Escherichia coli TOP10
shrunken log2 fold change: 0.31

[Q] Report shrunken log2 fold change, nothing else, for this sequence: RRIRVRPPRLPRPRPRPGTLPRP
[A] -0.174

----------
Tested on: Escherichia coli TOP10
RUN_DESCRIPTION: shrunken log2 fold change of peptide-encoding DNA abundance (4.5 h post-induction vs induction); higher = less antimicrobial activity (less host growth inhibition)
EXPERIMENTAL_CONDITIONS: time post-induction: 4.5 h; library: site-saturation at positions 5, 18, 19, 20
QUANTITY_MEASURED: shrunken log2 fold change
Please reply with the number alone, leaving off any unit.

[Q] Report shrunken log2 fold change, nothing else, for this sequence: RRIRNRPPRLPRPRPRPFMEPRP
[A] -0.167

[Q] Report shrunken log2 fold change, nothing else, for this sequence: RRIRDRPPRLPRPRPRPCKEPRP
[A] 0.00884

[Q] Report shrunken log2 fold change, nothing else, for this sequence: RRIRDRPPRLPRPRPRPVDIPRP
[A] -0.0995

----------
Test system: Escherichia coli TOP10
RUN_DESCRIPTION: shrunken log2 fold change of peptide-encoding DNA abundance (4.5 h post-induction vs induction); higher = less antimicrobial activity (less host growth inhibition)
EXPERIMENTAL_CONDITIONS: time post-induction: 4.5 h; library: site-saturation at positions 5, 18, 19, 20
QUANTITY_MEASURED: shrunken log2 fold change
Please reply with the number alone, leaving off any unit.

Examples with answers:
ENTRY_SEQUENCE: RRIRYRPPRLPRPRPRPFKSPRP
ASSAY_VALUE: -0.0165

ENTRY_SEQUENCE: RRIRWRPPRLPRPRPRPTEYPRP
ASSAY_VALUE: -0.0755

ENTRY_SEQUENCE: RRIRMRPPRLPRPRPRPLFPPRP
ASSAY_VALUE: 0.152

ENTRY_SEQUENCE: RRIRPRPPRLPRPRPRPLCDPRP
ASSAY_VALUE: -0.312

ENTRY_SEQUENCE: RRIRARPPRLPRPRPRPFDHPRP
ASSAY_VALUE: -0.394

[Q] Report shrunken log2 fold change, nothing else, for this sequence: RRIRERPPRLPRPRPRPYSKPRP
[A] -0.464

[Q] Report shrunken log2 fold change, nothing else, for this sequence: RRIRSRPPRLPRPRPRPNIDPRP
[A] -0.204

[Q] Report shrunken log2 fold change, nothing else, for this sequence: RRIRFRPPRLPRPRPRPNHFPRP
[A] -0.0292

----------
Test system: Escherichia coli TOP10
RUN_DESCRIPTION: shrunken log2 fold change of peptide-encoding DNA abundance (4.5 h post-induction vs induction); higher = less antimicrobial activity (less host growth inhibition)
EXPERIMENTAL_CONDITIONS: time post-induction: 4.5 h; library: site-saturation at positions 5, 18, 19, 20
QUANTITY_MEASURED: shrunken log2 fold change
Please reply with the number alone, leaving off any unit.

ENTRY_SEQUENCE: RRIRNRPPRLPRPRPRPNNEPRP
shrunken log2 fold change: -0.208

ENTRY_SEQUENCE: RRIRVRPPRLPRPRPRPCFTPRP
shrunken log2 fold change: -0.0879

ENTRY_SEQUENCE: RRIRRRPPRLPRPRPRPCHCPRP
shrunken log2 fold change: -0.0688

Could you now look at the following sequence, please?
[Q] Report shrunken log2 fold change, nothing else, for this sequence: RRIRCRPPRLPRPRPRPNNLPRP
[A] -0.765

----------
Listing of entries alongside the reported shrunken log2 fold change.
System: Escherichia coli TOP10
RUN_DESCRIPTION: shrunken log2 fold change of peptide-encoding DNA abundance (4.5 h post-induction vs induction); higher = less antimicrobial activity (less host growth inhibition)
EXPERIMENTAL_CONDITIONS: time post-induction: 4.5 h; library: site-saturation at positions 5, 18, 19, 20
Please reply with the number alone, leaving off any unit.

ENTRY_SEQUENCE: RRIRPRPPRLPRPRPRPYYEPRP
shrunken log2 fold change: -0.321
--
ENTRY_SEQUENCE: RRIRYRPPRLPRPRPRPRCAPRP
shrunken log2 fold change: -0.199
--
ENTRY_SEQUENCE: RRIRQRPPRLPRPRPRPYVSPRP
shrunken log2 fold change: -0.0823

[Q] Report shrunken log2 fold change, nothing else, for this sequence: RRIRKRPPRLPRPRPRPQSFPRP
[A] 0.327

[Q] Report shrunken log2 fold change, nothing else, for this sequence: RRIRPRPPRLPRPRPRPNKDPRP
[A] -0.534

[Q] Report shrunken log2 fold change, nothing else, for this sequence: RRIRNRPPRLPRPRPRPRELPRP
[A] 0.287

[Q] Report shrunken log2 fold change, nothing else, for this sequence: RRIRFRPPRLPRPRPRPAYQPRP
[A] -0.135

[Q] Report shrunken log2 fold change, nothing else, for this sequence: RRIRTRPPRLPRPRPRPTTLPRP
[A] -0.316

[Q] Report shrunken log2 fold change, nothing else, for this sequence: RRIRPRPPRLPRPRPRPGMQPRP
[A] 0.515

[Q] Report shrunken log2 fold change, nothing else, for this sequence: RRIRIRPPRLPRPRPRPYSNPRP
[A] -0.385

[Q] Report shrunken log2 fold change, nothing else, for this sequence: RRIRARPPRLPRPRPRPPNNPRP
[A] 0.0107

[Q] Report shrunken log2 fold change, nothing else, for this sequence: RRIRPRPPRLPRPRPRPTCGPRP
[A] -0.0302

[Q] Report shrunken log2 fold change, nothing else, for this sequence: RRIRLRPPRLPRPRPRPAETPRP
[A] 0.0382

[Q] Report shrunken log2 fold change, nothing else, for this sequence: RRIRWRPPRLPRPRPRPRVLPRP
[A] 0.381

[Q] Report shrunken log2 fold change, nothing else, for this sequence: RRIRIRPPRLPRPRPRPHWKPRP
[A] -0.0691

[Q] Report shrunken log2 fold change, nothing else, for this sequence: RRIRLRPPRLPRPRPRPPMMPRP
[A] -0.149

[Q] Report shrunken log2 fold change, nothing else, for this sequence: RRIRWRPPRLPRPRPRPAGRPRP
[A] 0.695

[Q] Report shrunken log2 fold change, nothing else, for this sequence: RRIRVRPPRLPRPRPRPLLTPRP
[A] -0.0362

[Q] Report shrunken log2 fold change, nothing else, for this sequence: RRIRERPPRLPRPRPRPDDHPRP
[A] -0.284

[Q] Report shrunken log2 fold change, nothing else, for this sequence: RRIRTRPPRLPRPRPRPQYSPRP
[A] -0.056

[Q] Report shrunken log2 fold change, nothing else, for this sequence: RRIRNRPPRLPRPRPRPCEFPRP
[A] -0.398

[Q] Report shrunken log2 fold change, nothing else, for this sequence: RRIRVRPPRLPRPRPRPCRIPRP
[A] -0.385

[Q] Report shrunken log2 fold change, nothing else, for this sequence: RRIRHRPPRLPRPRPRPTFPPRP
[A] 0.145

----------
Listing of entries alongside the reported shrunken log2 fold change.
Tested on: Escherichia coli TOP10;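 also: peptides expressed intracellularly from a pBAD plasmid library in pooled LB shake-flask culture, induced with 0.3% L-arabinose, DNA abundance read by NGS, three biological replicates, DESeq2 with apeglm shrinkage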
RUN_DESCRIPTION: shrunken log2 fold change of peptide-encoding DNA abundance (4.5 h post-induction vs induction); higher = less antimicrobial activity (less host growth inhibition)
EXPERIMENTAL_CONDITIONS: time post-induction: 4.5 h; library: site-saturation at positions 5, 18, 19, 20
Please reply with the number alone, leaving off any unit.

ENTRY_SEQUENCE: RRIRPRPPRLPRPRPRPPENPRP
ASSAY_VALUE: 0.365

ENTRY_SEQUENCE: RRIRHRPPRLPRPRPRPNNQPRP
ASSAY_VALUE: -0.465

ENTRY_SEQUENCE: RRIRTRPPRLPRPRPRPPTTPRP
ASSAY_VALUE: 0.302

ENTRY_SEQUENCE: RRIRSRPPRLPRPRPRPGDIPRP
ASSAY_VALUE: -0.198

ENTRY_SEQUENCE: RRIRKRPPRLPRPRPRPPTQPRP
ASSAY_VALUE: 0.301

[Q] Report shrunken log2 fold change, nothing else, for this sequence: RRIRYRPPRLPRPRPRPKNCPRP
[A] -0.0167

[Q] Report shrunken log2 fold change, nothing else, for this sequence: RRIRWRPPRLPRPRPRPDLLPRP
[A] 0.0586

[Q] Report shrunken log2 fold change, nothing else, for this sequence: RRIRGRPPRLPRPRPRPHQLPRP
[A] 0.339

Where do the numbers come from? From the supplement of paper PMC9112550.
